system: MOS1 transposase (MBP-MOS1) (Drosophila mauritiana)
Construct: made in house
Sequence (Q7JQ07 whole entry): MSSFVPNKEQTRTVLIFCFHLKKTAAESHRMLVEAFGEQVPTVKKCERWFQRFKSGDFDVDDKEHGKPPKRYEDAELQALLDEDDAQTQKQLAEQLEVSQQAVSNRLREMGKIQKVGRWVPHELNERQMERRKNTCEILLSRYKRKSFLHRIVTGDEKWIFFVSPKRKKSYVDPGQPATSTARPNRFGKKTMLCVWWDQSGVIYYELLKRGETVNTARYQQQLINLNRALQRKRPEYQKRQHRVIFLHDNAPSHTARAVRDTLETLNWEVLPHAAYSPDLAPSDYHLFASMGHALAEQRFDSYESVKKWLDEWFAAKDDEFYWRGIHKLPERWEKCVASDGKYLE
assay.explanation: In vitro transposition test
Assay type: biochemical
condition.label: 80 μM compound; mean of at least five experiments
readout: Transposition frequencies

• COc1ccc(C(c2c(O)c3ccccc3oc2=O)c2c(O)c3ccccc3oc2=O)cc1CSc1ccccn1 [Compound 7, reference compound] = 4.85 × 10^−6
• CCOC(=O)C(Cc1ccccc1)N1C(=O)C(c2ccc(C(=O)O)o2)=C(c2ccc(C(=O)O)o2)C1=O (stereo not drawn) [Compound 3] = 4.01 × 10^−6
• O=C(O)C(Cc1ccccc1)N1C(=O)C(=CC=Cc2ccccc2)SC1=S (stereo not drawn) [Compound 10, reference compound] = 2.76 × 10^−6
